test system: Vero E6; experiment: cell viability relative to DMSO; higher = less toxic; conditions: 72 h; 1000 nM
Observable: cell viability (%)
Answers are plain numbers, in %.

Compound	cell viability [%]
CCOC(=O)c1ncc2[nH]c3ccc(OCc4ccccc4)cc3c2c1COC	93.5
CCOC(=O)CCC(=O)O[C@H]1[C@H](O[C@@H]2[C@@H](C)[C@H](O[C@H]3C[C@@](C)(OC)[C@@H](O)[C@H](C)O3)[C@@H](C)C(=O)O[C@H](CC)[C@@](C)(O)[C@H](O)[C@@H](C)C(=O)[C@H](C)C[C@@]2(C)O)O[C@H](C)C[C@@H]1N(C)C [erythromycin-ethylsuccinate]	100
Brc1c(Br)c(Br)c2[nH]nnc2c1Br	99.4

Answer for every listed entry: what is its cell viability? The entries follow.
1. O=C(c1cc(S(=O)(=O)Nc2ccccc2F)c(F)cc1Cl)N1CCN2CCC[C@@H]2C1
2. O=C1Cc2c([nH]c3ccc(Br)cc23)-c2ncccc2N1
3. COc1cc2nccc(Oc3ccc(NC(=O)C4(C(=O)Nc5ccc(F)cc5)CC4)cc3)c2cc1OC [cabozantinib]

100
101
99.3

---

system: U2OS; assay: cell viability relative to DMSO; higher = less toxic; settings: 72 h; 10 nM
Observable: cell viability (%)
Give bare numbers, in %.

Before answering, review these 5 worked examples.
> print(dat)
                                   molecule  display.unit  endpoint.result
1  CCCCc1nc(Cl)c(CO)n1Cc1ccc(-c2ccccc2-c2nnn[nH]2)cc1             %              104
2  Cc1nc2ccccn2c(=O)c1CCN1CCC(C(=O)c2ccc(F)cc2)CC1             %              106
3  CC1(C)CCC[C@]2(C)[C@H]3CC(=O)O[C@]3(C)CC[C@@H]12 [Sclareolide (Norambreinolide)]             %              100
4  CCCC(=O)OCOC(=O)C1=C(C)NC(C)=C(C(=O)OC)C1c1cccc(Cl)c1Cl (stereo not drawn)             %              104
5  CN(C)CC/C=C1/c2ccccc2COc2ccccc21 [doxepin]             %              101

Answer for every listed entry: what is its cell viability? The entries follow.
1. Clc1ccc(C(Cn2ccnc2)OCc2ccc(Sc3ccccc3)cc2)c(Cl)c1 (stereo not drawn)
2. C[C@@H](O)[C@H]1C(=O)N2C(C(=O)[O-])=C(SC3Cn4cnc[n+]4C3)[C@H](C)[C@H]12 (stereo partly drawn)
3. CC1(C)C(=O)N(c2ccc(C#N)c(C(F)(F)F)c2)C(=O)N1CCCCO

1: 97.8; 2: 104; 3: 102

---

test system: Caco-2; assay: cell viability relative to DMSO; higher = less toxic; settings: 72 h; 1000 nM
Observable: cell viability (%)
Give bare numbers, in %.

Before answering, review these 4 worked examples.
> print(dat)
                                   compound  display.unit  endpoint.result
1  O=C(O)c1ccc(-c2c[nH]c3ncc(-c4ccccc4)cc23)cc1C1CCCC1             %              105
2  CCCCc1nc(Cl)c(CO)n1Cc1ccc(-c2ccccc2-c2nnn[nH]2)cc1             %             94.7
3     COC(=O)c1csc(C(=O)c2c[nH]c3ccccc23)n1             %              108
4  COC(=O)C1=CO[C@@H](O)[C@@H]2C(CO)=CC[C@H]12             %             96.8

Answer for every listed entry: what is its cell viability? The entries follow.
1. CN1CCCN(C(c2ccccc2)c2ccc(Cl)cc2)CC1 (centres undefined)
2. NC(=O)CNCCC(c1ccccc1)c1ccccc1 [N20C]
3. Cc1ccc(S(=O)(=O)NC2c3ccccc3Oc3ccccc32)cc1
4. C=C1CC[C@H](O)C/C1=C/C=C1\CCC[C@]2(C)[C@@H]([C@H](C)CCCC(C)C)CC[C@@H]12
5. CC(C)[C@H](O)C(=O)N[C@@H](C)C(=O)N[C@@H]1C(=O)N(C)CCc2ccccc21

1. 99.6
2. 97.2
3. 92.9
4. 103
5. 102

---

Task for the reader: assign each of the following compounds its reported cell viability.
tested on: Caco-2; assay: cell viability relative to DMSO; higher = less toxic; conditions: 72 h; 1000 nM
Answers are plain numbers, in %.

Before answering, review these 3 worked examples.
> print(dat)
                                   compound  target.under.test      observable  endpoint.result
1  CCOC(=O)[C@H](CCc1ccccc1)N[C@@H](C)C(=O)N1Cc2ccccc2C[C@H]1C(=O)O             Caco-2  cell viability             96.3
2  O=C(CBr)N1CC([N+](=O)[O-])([N+](=O)[O-])C1             Caco-2  cell viability              104
3         COc1ccc2nc3ccc(Cl)cc3c(SCCCN)c2c1             Caco-2  cell viability             93.5

Answer for every listed entry: what is its cell viability? The entries follow.
1. N[C@@H](C(=O)O)c1nn[nH]n1 (racemic) [tetrazol-5-yl-glycine-(RS)]
2. O=C(NC1CCN(CCc2c[nH]c3ccccc23)CC1)c1ccccc1
3. CC(=C(CCOC(=O)C(C)C)SSC(CCOC(=O)C(C)C)=C(C)N(C=O)Cc1cnc(C)nc1N)N(C=O)Cc1cnc(C)nc1N (stereo in doubt)

[98, 101, 98.5]

---

Task for the reader: assign each of the following molecules its reported cell viability.
test system: Caco-2; test: cell viability relative to DMSO; higher = less toxic; conditions: 72 h; 10000 nM
Give bare numbers, in %.

> print(dat)
                                   molecule      observable  endpoint.result
1                 Cc1ncc([N+](=O)[O-])n1CCO  cell viability             98.4
2  CCCCCOc1c(OC)ccc2cc(C(=O)NCc3ccc4c(c3)OCO4)c(=O)[nH]c12  cell viability             75.7
3  Nc1nc(=O)c2c([nH]1)NCC(CNc1ccc(C(=O)N[C@@H](CCC(=O)O)C(=O)O)cc1)N2C=O (stereo partly specified)  cell viability              100
4  Cc1cccc(CN2CCN(C(c3ccccc3)c3ccc(Cl)cc3)CC2)c1 (stereo unspecified)  cell viability             85.8
5  CCC(c1ccccc1)c1c(O)c2ccccc2oc1=O (stereo unspecified)  cell viability              104

Answer for every listed entry: what is its cell viability? The entries follow.
1. CN(C)CC/C=C1/c2ccccc2COc2ccccc21 [doxepin]
2. COC(=O)c1csc(C(=O)c2c[nH]c3ccccc23)n1
3. C[C@H]1NCc2cc(-c3ccc4c(=O)c(C(=O)O)cn(C5CC5)c4c3OC(F)F)ccc21
4. CN1CCN(c2ccc3ccccc3n2)CC1
5. CCN1CCN(c2cc(-c3ccc(F)cc3)c3c(n2)CCCCCC3)CC1
6. CCCC(=O)OCOC(=O)C1=C(C)NC(C)=C(C(=O)OC)C1c1cccc(Cl)c1Cl (stereo unspecified)
7. Cn1cc([S+](C)[O-])c(=O)c2ccc(F)cc21 (stereo unspecified)
8. NS(=O)(=O)NCCNc1nonc1/C(=N/O)Nc1ccc(F)c(Br)c1

1: 99.6; 2: 94.2; 3: 98.6; 4: 102; 5: 95.5; 6: 87; 7: 95.7; 8: 96.4

---

Task for the reader: assign each of the following molecules its reported cell viability.
system: U2OS; test: cell viability relative to DMSO; higher = less toxic; details: 72 h; 10 nM
Answers are plain numbers, in %.

> print(dat)
                                   molecule      observable  endpoint.result
1  COc1cc(C[C@H]2C(=O)OC[C@@H]2Cc2ccc(OC)c(OC)c2)ccc1O [arctigenin]  cell viability              101
2  CN1CCCN(C(c2ccccc2)c2ccc(Cl)cc2)CC1 (centres undefined) [homochlorcyclizine]  cell viability             95.7
3  COc1cc2nccc(Oc3ccc(NC(=O)Nc4ccc(F)cc4F)c(F)c3)c2cc1OC [KI-8751]  cell viability             97.6
4  C[C@]12C[C@H](O)[C@H]3[C@@H](CCC4=CC(=O)CC[C@@]43C)[C@@H]1CC[C@@H]2C(=O)CO [corticosterone]  cell viability              100
5  CCC(=O)NC[C@H](Cc1ccc(OCCc2nc(-c3ccccc3)oc2C)cc1)N/C(C)=C\C(=O)c1ccc(C(F)(F)F)cc1 [GW-6471]  cell viability              104

Answer for every listed entry: what is its cell viability? The entries follow.
1. CC(NCCC(c1ccccc1)c1ccccc1)c1ccccc1 (centres undefined) [fendiline]
2. CN1CCN(c2ccc3ccccc3n2)CC1 [N-methylquipazine]
3. Nc1nc(=O)[nH]cc1F [flucytosine]
4. Nc1cc(Cl)c(N=C2NCCN2)c(Cl)c1 [apraclonidine]

1. 106
2. 99.4
3. 99.2
4. 101
